Taken from ChEMBL document CHEMBL1201862.

# Test system: NCI-H23
# method_notes: NCI tumour cell line growth inhibition, 48 h
Active and inactive are the calls of the source. Rule as the data show it: active = GI50 up to about 1.1 µM and inactive = higher. Non-standard residues stand in square brackets, D forms with d. Residues, ends and D or L forms follow the SMILES beside them. ξ: configuration not given here. *: point of attachment. X18 = COC1=CC(=O)N(C(=O)C(O*)C(C)C)C1Cc1ccccc1; ξNMe2Val = CC(C)C(C(=O)*)N(C)C; NMeV = CN[CH](C(=O)O)C(C)C
# GI50 per record follows

Some compounds with recorded GI50:
compound	readout_value
COC1=CC(=O)N(C(=O)C(OC(=O)C2CCCN2C(=O)C2CCCN2C(=O)C(C(C)C)N(C)C(=O)C(NC(=O)C(C(C)C)N(C)C)C(C)C)C(C)C)C1Cc1ccccc1 (centres undefined) (ξNMe2Val-V[NMeV]PP-X18; configuration not given here)	0.00315 µM (active)
O=c1c(C(c2cc(OCc3ccccc3)cc(OCc3ccccc3)c2)c2c(O)oc3ccccc3c2=O)c(O)oc2ccccc12	4.42 µM (inactive)
Cc1ccc(S(=O)(=O)NC(=O)NC(Cc2ccc(O)cc2)C(=O)O)cc1 (centres undefined)	> 100 µM (inactive)

Next:
For this compound ( `CSC1=Nc2ccccc2N=C(c2ccc(Cl)cc2)C1` ), measured GI50 is 31.7 µM (inactive)
